Target protein (sequence): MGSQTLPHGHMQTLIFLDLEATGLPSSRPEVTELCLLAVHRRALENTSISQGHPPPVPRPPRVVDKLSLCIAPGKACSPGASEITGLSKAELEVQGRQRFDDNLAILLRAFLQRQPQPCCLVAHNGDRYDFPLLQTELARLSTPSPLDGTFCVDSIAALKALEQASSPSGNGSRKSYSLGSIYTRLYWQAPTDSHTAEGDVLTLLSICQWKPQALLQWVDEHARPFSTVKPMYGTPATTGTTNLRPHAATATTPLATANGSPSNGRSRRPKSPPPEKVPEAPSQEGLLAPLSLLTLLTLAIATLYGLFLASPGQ
Recorded IC50 for the following compounds

| Compound | IC50 |
| --- | --- |
| CC(C)C[C@H](C(=O)NCc1ccc(Cl)c(Cl)c1)N1CCC(CCc2ccccc2)N2C[C@H](N)C[C@H]2C1=O (some centres not stated) | < 1000 nM |
| N[C@@H]1C[C@H]2C(=O)N([C@H](CO)C(=O)NCc3ccc(Cl)c(Cl)c3)CCC(CCc3ccccc3)N2C1 (some centres not stated) | < 1000 nM |
